Assay Target: GBA2 (Homo sapiens (Human), UniProt Q9HCG7)
Sequence (Q9HCG7 whole entry): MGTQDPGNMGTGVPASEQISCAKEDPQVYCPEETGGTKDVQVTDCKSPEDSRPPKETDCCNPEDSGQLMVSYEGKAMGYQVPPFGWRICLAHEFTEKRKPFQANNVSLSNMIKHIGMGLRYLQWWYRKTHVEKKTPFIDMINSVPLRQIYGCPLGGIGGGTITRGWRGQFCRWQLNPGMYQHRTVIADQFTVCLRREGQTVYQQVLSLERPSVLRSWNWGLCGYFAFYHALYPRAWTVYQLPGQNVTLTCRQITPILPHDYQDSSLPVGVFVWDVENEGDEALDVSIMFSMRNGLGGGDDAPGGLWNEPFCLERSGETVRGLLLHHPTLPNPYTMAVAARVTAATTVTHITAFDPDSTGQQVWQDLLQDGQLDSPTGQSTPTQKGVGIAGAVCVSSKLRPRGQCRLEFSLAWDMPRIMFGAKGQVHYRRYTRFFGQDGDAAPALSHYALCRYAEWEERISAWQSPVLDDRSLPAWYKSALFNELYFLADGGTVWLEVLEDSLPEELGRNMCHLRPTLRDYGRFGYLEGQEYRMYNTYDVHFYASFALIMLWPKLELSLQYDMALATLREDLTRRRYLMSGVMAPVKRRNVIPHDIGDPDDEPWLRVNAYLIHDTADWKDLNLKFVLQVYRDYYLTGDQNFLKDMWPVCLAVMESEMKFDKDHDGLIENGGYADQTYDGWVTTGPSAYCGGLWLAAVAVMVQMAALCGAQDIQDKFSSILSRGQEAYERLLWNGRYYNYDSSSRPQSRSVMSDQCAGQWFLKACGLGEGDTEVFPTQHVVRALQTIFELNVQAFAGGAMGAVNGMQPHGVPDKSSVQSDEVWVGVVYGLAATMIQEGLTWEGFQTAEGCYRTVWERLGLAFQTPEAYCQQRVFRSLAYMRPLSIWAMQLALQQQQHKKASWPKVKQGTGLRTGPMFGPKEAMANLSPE
Assay Comment: Inhibition of GBA2 in cell lysate (4-methylumbelliferone glucopyranoside substrate)
Format: biochemical
Experimental Conditions: HEK293T-overexpressing GBA2 cellular homogenate, pH 5.5; read-out: GBA2 IC50
pIC50: −log10 of the molar value.
Listing of entries alongside the reported pIC50.
Quantity Measured: pIC50

* O[C@H]1[C@H](O)CN(Cc2ccc(Oc3ccccc3)cc2)C[C@@H]1O [Example 201] | > 7.00
* Cc1noc(C)c1-c1cc(F)c(CCN2C[C@@H](O)[C@H](O)[C@@H](O)C2)c(F)c1 [Example 14] | > 7.00
* O[C@H]1[C@H](O)CN(CCc2c(F)cc(C3CCOCC3)cc2F)C[C@@H]1O [Example 13] | > 7.00
* O[C@H]1[C@H](O)CN(C[C@H]2CCCN(c3cccc(C(F)(F)F)n3)C2)C[C@@H]1O [Example 30] | > 7.00
* O[C@H]1[C@H](O)CN(CC2(F)CCN(c3nc4ccccc4s3)CC2)C[C@@H]1O [Example 196] | 6.00 to 7.00
* O=C(C1CCCCC1)N1CCC(F)(CN2C[C@@H](O)[C@H](O)[C@@H](O)C2)CC1 [Example 191] | 6.00 to 7.00
* O[C@H]1[C@H](O)CN(C[C@H]2CCCN(c3cc(C(F)(F)F)ccn3)C2)C[C@@H]1O [Example 169] | > 7.00
* O[C@H]1[C@H](O)CN(CC2Cc3ccccc3C2)C[C@@H]1O [Example 62] | > 7.00

---

Assay Target: GBA2 (Homo sapiens (Human), UniProt Q9HCG7)
Assay Comment: Inhibition of GBA2 in cell lysate (4-methylumbelliferone glucopyranoside substrate)
Assay type: biochemical
Quantity Measured: IC50

- CC(Cc1cccc(Cl)c1F)N1C[C@@H](O)[C@H](O)[C@@H](O)C1 (stereo partly shown): 0.1 to 1 µM

---

Assay Target: GBA2 (Homo sapiens (Human), UniProt Q9HCG7)
Assay Comment: Inhibition of GBA2 in cell lysate (4-methylumbelliferone glucopyranoside substrate);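 note: homogenate of stably transfected HEK293T cells pre-treated with a GCase inhibitor, test compound preincubated 5 min at 37 °C, substrate reaction 20 min at 37 °C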
Format: biochemical
Experimental Conditions: HEK293T-overexpressing GBA2 cellular homogenate, pH 5.5; read-out: GBA2 IC50
IC50 listing for selected compounds.
Quantity Measured: IC50

- O[C@H]1[C@H](O)CN(C[C@H]2CCN(c3ccc(C(F)(F)F)nc3)C2)C[C@@H]1O: < 100 nM
- CC(F)(F)[C@H]1CC[C@H](CN2C[C@@H](O)[C@H](O)[C@@H](O)C2)CC1: < 100 nM
- O[C@H]1[C@H](O)CN(C[C@@H]2CCN(c3nc(C(F)(F)F)cs3)C2)C[C@@H]1O: < 100 nM
- O[C@H]1[C@H](O)CN(C[C@@H]2CCN(c3cccc4scnc34)C2)C[C@@H]1O: < 100 nM
- O[C@H]1[C@H](O)CN(C[C@H]2CCCN(c3cccc4scnc34)C2)C[C@@H]1O: < 100 nM
- O[C@H]1[C@H](O)CN(C[C@H]2CCN(c3cncc(C(F)(F)F)c3)C2)C[C@@H]1O: < 100 nM
- O[C@H]1[C@H](O)CN(C[C@H]2CCN(c3nc(C(F)(F)F)cs3)C2)C[C@@H]1O: < 100 nM
- O[C@H]1[C@H](O)CN(C[C@H]2CC[C@H](OC(F)(F)F)CC2)C[C@@H]1O: < 100 nM
- O[C@H]1[C@H](O)CN(CCC2CCCCC2)C[C@@H]1O: < 100 nM
- O[C@H]1[C@H](O)CN(C[C@@H]2CCCN(c3ccc(C(F)(F)F)cn3)C2)C[C@@H]1O: 1000 to 25000 nM
- O[C@H]1[C@H](O)CN(C[C@H]2CC[C@@H](C(F)(F)F)CC2)C[C@@H]1O: < 100 nM
- Cc1n[nH]c(C)c1-c1cc(F)c(CCN2C[C@@H](O)[C@H](O)[C@@H](O)C2)c(F)c1: < 100 nM
- O[C@H]1[C@H](O)CN(C[C@H]2CCCN(c3ccnc(C(F)(F)F)c3)C2)C[C@@H]1O: < 100 nM
- O[C@H]1[C@H](O)CN(C[C@H]2CCCN(c3ncccc3C(F)(F)F)C2)C[C@@H]1O: < 100 nM
- O[C@H]1[C@H](O)CN(CC2Cc3c(F)ccc(F)c3C2)C[C@@H]1O: < 100 nM
- O[C@H]1[C@H](O)CN(C[C@@H]2CCCN(c3nc(C(F)(F)F)cs3)C2)C[C@@H]1O: 100 to 1000 nM
- O[C@H]1[C@H](O)CN(C[C@@H]2CCCN(c3cnccc3C(F)(F)F)C2)C[C@@H]1O: < 100 nM
- O[C@H]1[C@H](O)CN(CC2(F)CCN(c3cccc(C(F)(F)F)n3)CC2)C[C@@H]1O: 100 to 1000 nM
- O[C@H]1[C@H](O)CN(C[C@H]2CCN(c3nc4ccccc4o3)C2)C[C@@H]1O: < 100 nM
- CCCCOc1cc(F)c(CN2C[C@@H](O)[C@H](O)[C@@H](O)C2)c(F)c1: 1000 to 25000 nM
- O[C@H]1[C@H](O)CN(Cc2ccc(-c3ccccc3)cc2)C[C@@H]1O: < 100 nM
- O[C@H]1[C@H](O)CN(C[C@@H]2CCCN(c3cncc(C(F)(F)F)c3)C2)C[C@@H]1O: 100 to 1000 nM
- O[C@H]1[C@H](O)CN(C[C@H]2CCCN(c3nc4ccccc4s3)C2)C[C@@H]1O: < 100 nM
- CC(C)(F)[C@H]1CC[C@@H](CN2C[C@@H](O)[C@H](O)[C@@H](O)C2)CC1: < 100 nM
- O[C@H]1[C@H](O)CN(C[C@H]2CCN(c3cnccc3C(F)(F)F)C2)C[C@@H]1O: < 100 nM
- O[C@H]1[C@H](O)CN(C[C@H]2CCCN(c3ccc(C(F)(F)F)nc3)C2)C[C@@H]1O: < 100 nM
- CC(F)(F)[C@H]1CC[C@@H](CN2C[C@@H](O)[C@H](O)[C@@H](O)C2)CC1: < 100 nM
- O[C@H]1[C@H](O)CN(C[C@H]2CCN(c3ncccc3C(F)(F)F)C2)C[C@@H]1O: < 100 nM
- O[C@H]1[C@H](O)CN(C[C@H]2CCN(c3cccc(C(F)(F)F)n3)C2)C[C@@H]1O: < 100 nM
- O[C@H]1[C@H](O)CN(CC2(F)CCN(c3ccccc3C(F)(F)F)CC2)C[C@@H]1O: < 100 nM
- O[C@H]1[C@H](O)CN(CCc2c(F)cc(OCC3CC3)cc2F)C[C@@H]1O: < 100 nM
- O[C@H]1[C@H](O)CN(CCCC2CCCCC2)C[C@@H]1O: < 100 nM

Sourced from patent US12528773B2
